Origin of the recorded values: the NIST ThermoML archive (doi:10.1021/acs.jced.6b00575)

What mass density was measured for each of the following?
condition: 363.15 K; 101.33 kPa; Liquid; Vibrating tube method
Numbers only, in kg/m3.

// known answers, use as guide
CCC(=O)N(C)C [N,N-dimethylpropionamide] ... 861.99
CC(=O)[NH+](C)C.O=S(=O)([N-]S(=O)(=O)C(F)(F)F)C(F)(F)F [N,N-dimethylacetamidium bis(trifluoromethanesulfonyl)amide] ... 1497.8
CN(C)C=O [dimethylformamide] ... 880.65

Quick batch: mass density for everything below.
1. CC(=O)N(C)C [N,N-dimethylethanamide]
2. CCC(=O)[NH+](C)C.O=S(=O)([N-]S(=O)(=O)C(F)(F)F)C(F)(F)F

Completion:
[875.43, 1453.97]

====

condition: 288.15 K; 101.33 kPa; Liquid; Concentric cylinders viscometry
Numbers after ± are expanded uncertainties.
property: viscosity

Quick batch: viscosity for everything below.
1. CC(=O)N(C)C [N,N-dimethylethanamide]
2. CCC(=O)N(C)C [N,N-dimethylpropionamide]
3. CCC(=O)[NH+](C)C.O=S(=O)([N-]S(=O)(=O)C(F)(F)F)C(F)(F)F

Completion:
1. 1.09 ± 0.02 mPa·s
2. 1.11 ± 0.03 mPa·s
3. 207.2 ± 5.6 mPa·s

====

What mass density was measured for each of the following?
condition: 353.15 K; 101.33 kPa; Liquid; Vibrating tube method
Numbers after ± are expanded uncertainties.

// known answers, use as guide
CN(C)C=O [dimethylformamide] ... 890.57 ± 0.15 kg/m3
CCC(=O)[NH+](C)C.O=S(=O)([N-]S(=O)(=O)C(F)(F)F)C(F)(F)F ... 1463.98 ± 1.6 kg/m3

Prompt: Dear colleague, I am looking for the recorded mass density of the following compound: CCC(=O)N(C)C [N,N-dimethylpropionamide]
Completion: 871.11 ± 3.5 kg/m3
